// data source = FireProtDB (doi:10.1111/j.1432-1033.1995.tb20713.x)

A collection of variants and their measured unfolding enthalpy (van 't Hoff)
B1: Adenylate kinase, P07170 (parent)
chain: MSSSESIRMVLIGPPGAGKGTQAPNLQERFHAAHLATGDMLRSQIAKGTQLGLEAKKIMDQGGLVSDDIMVNMIKDELTNNPACKNGFILDGFPRTIPQAEKLDQMLKEQGTPLEKAIELKVDDELLVARITGRLIHPASGRSYHKIFNPPKEDMKDDVTGEALVQRSDDNADALKKRLAAYHAQTEPIVDFYKKTGIWAGVDASQPPATVWADILNKLGKD

Variants of: B1
Conditions: Saccharomyces cerevisiae (strain ATCC 204508 / S288c); pH 7.5; Thermal; Fluorescence; MOPS-NaOH 30 mM; reversible: yes; structure 2AKY; whole UniProt chain shown
Provide only the numeric value, understood in kcal/mol.

Example entries and their recorded answers appear below.
V10I = 64.5
N171D = 47.8

Challenge: Please look up its unfolding enthalpy (van 't Hoff): T79H
Response given: 50.2

Challenge: Please look up its unfolding enthalpy (van 't Hoff): I215F
Response given: 59.8
